# experimentDescription: Basic ionization constant, pKa of the compound in 100% acetonitrile by UV-vis spectrophotometric titration method
# Assay type: physicochemical
# conditionLabel: 100% acetonitrile; read-out: pKa
endpointLabel: pKa

stdin: # pKa lookup, item Nc1cccc(O)c1
stdout: 10.4

stdin: # pKa lookup, item CCn1cc(C(=O)O)c(=O)c2ccc(C)nc21
stdout: 6.17

---

# experimentDescription: Ionization constant, pKa of the compound in water by potentiometric titration method
# Assay type: physicochemical
endpointLabel: pKa
// keep it numeric: no unit symbol after the value

{"molecule": "Cc1cccc(C)c1NC(=O)C1CCCCN1C (configuration not stated) [MEPIVACAINE]", "pKa": 7.83}

Then this molecule:
stdin: # pKa lookup, item NS(=O)(=O)c1cc2c(cc1Cl)NCNS2(=O)=O [HYDROCHLOROTHIAZIDE]
stdout: 8.68
